# target: L-type calcium channel (Homo sapiens, UniProt O60840+Q01668+Q13698+Q13936)
# protocol details: Inhibition of human L-type calcium channel at 10 uM
measured property: inhibition at 10 µM (%)
Give bare numbers, in %.

Look up and report inhibition at 10 µM, with L-type calcium channel (Homo sapiens, UniProt O60840+Q01668+Q13698+Q13936) as system, for Cc1cc2ncc(-c3ccc4cc(CCN5CCC[C@H]5C)ccc4n3)c(C)n2n1
63

====

# protocol details: Oral bioavailability in rat at 1 mg/kg
# Type: ADME, organism-based
# assay conditions: in vivo
measured property: bioavailability (%)
One number for each entry, in %.

A selection of reference data follows.
- molecule smiles: "Cc1nc(N2CCCC2)ncc1-c1ccc2cc(CCN3CCC[C@H]3C)ccc2n1"
  measured property: "bioavailability"
  result unit: "%"
  reported value: 98
- molecule smiles: "Cc1c(-c2ccc3cc(CCN4CCC[C@H]4C)ccc3n2)cnn1-c1ccccn1"
  measured property: "bioavailability"
  result unit: "%"
  reported value: 75
- molecule smiles: "Cc1nc2ncccc2cc1-c1ccc2cc(CCN3CCC[C@H]3C)ccc2n1"
  measured property: "bioavailability"
  result unit: "%"
  reported value: 30
- molecule smiles: "CCOc1ccc(-n2ncc(-c3ccc4cc(CCN5CCC[C@H]5C)ccc4n3)c2C)nn1"
  measured property: "bioavailability"
  result unit: "%"
  reported value: 70
- molecule smiles: "Cc1cc2ncc(-c3ccc4cc(CCN5CCC[C@H]5C)ccc4n3)c(C)n2n1"
  measured property: "bioavailability"
  result unit: "%"
  reported value: 90

Identify bioavailability associated with the compound Cc1nn(C)cc1-c1ccc2cc(CCN3CCC[C@H]3C)ccc2n1
58
